Tested on: HEK-293T
Assay: Multiplex assay against HEK293T
Type: toxicity, cell-based
Settings: human, 24 h, 10 µM, compound concentration 10 uM, replicate 2
assay_metric: Population Apoptotic (%)
# value in %; strip the unit string

Consider the reported Population Apoptotic (%) for these compounds:
Inquiry: What is its Population Apoptotic (%) for HEK-293T? Entry: COc1ccc2[nH]c(I)c(CCNC(C)=O)c2c1
Reply text: 40

Inquiry: Query Population Apoptotic (%) on HEK-293T for O=c1ccc2ccc(OCCCCN3CCN(c4cccc5sccc45)CC3)cc2[nH]1
Reply text: 89

Inquiry: Notebook: pull reported Population Apoptotic (%) for HEK-293T, entry Cc1cc(O)c(-c2ccc([C@@H](C)CN(C)C)cc2)c2c1[nH]c(=O)c1sccc12
Reply text: 85

Inquiry: Any idea what Population Apoptotic (%) came out for COc1cc2nc(N3CCN(C(=O)COc4c(OC)cccc4C(C)C)CC3)nc(N)c2cc1OC.Cl.Cl on HEK-293T?
Reply text: 51

Inquiry: Requested read-out Population Apoptotic (%), target or system HEK-293T, entry CN1CCC(C(=O)c2cccc(NC(=O)c3c(F)cc(F)cc3F)n2)CC1
Reply text: 52

More entries:
Inquiry: Field: Population Apoptotic (%) (HEK-293T). Entry: CCc1nn2c(C)cc(C)nc2c1Cc1ccc(-c2nnc(C3CCNCC3)o2)cc1
Reply text: 41

Inquiry: I'm curious: which Population Apoptotic (%) was measured for CCCCCCNC(=O)Nc1ccc(S(=O)(=O)Nc2ccc(CCNC[C@H](O)COc3ccc(O)cc3)cc2)cc1 tested on HEK-293T?
Reply text: 48

Inquiry: I'm curious: which Population Apoptotic (%) was measured for CC(F)(F)CN1CCOc2c(nn(-c3ccccc3Cl)c2-c2ccc(Cl)cc2)C1=O tested on HEK-293T?
Reply text: 41
